B1: glmS ribozyme (parent)
chain: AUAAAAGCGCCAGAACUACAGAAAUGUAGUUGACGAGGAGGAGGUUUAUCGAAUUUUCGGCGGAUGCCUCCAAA

variants of: B1; assay: self-cleavage kobs at 10000 uM GlcN6P; higher = faster cleavage; RNA array; settings: with glucosamine-6-phosphate
This sample holds only a part of the variants without activity.
// label = condition met if self-cleavage kobs at 10000 uM GlcN6P is not less than 0.0004 s⁻¹, otherwise condition not met

Below are worked cases with known answers.
Variant Id	Label
G43C G59C	condition not met
A6C C34A	condition not met
G40C U45A	condition met
A12C U30A	condition met
C11U A52C	condition not met
G7U G29C	condition not met
A12C G41A	condition met
G32A C70U	condition met
G41C C67U C70A	condition not met
G13U U47G	condition not met

Prompt: Record G41A A64G ; criterion: self-cleavage kobs at 10000 uM GlcN6P no lower than 0.0004 s⁻¹. Met?
Response: condition met

Prompt: Record G44U U54A ; criterion: self-cleavage kobs at 10000 uM GlcN6P no lower than 0.0004 s⁻¹. Met?
Response: condition not met

Prompt: Record A12C U65G C67U ; criterion: self-cleavage kobs at 10000 uM GlcN6P no lower than 0.0004 s⁻¹. Met?
Response: condition met

Prompt: Record G9A C50U ; criterion: self-cleavage kobs at 10000 uM GlcN6P no lower than 0.0004 s⁻¹. Met?
Response: condition not met

Source of measurements: the supplement of paper PMC7125110
